assay: Liver and heart mass / gross pathology; assay type: in vivo, Swiss Albino mice; conditions: after 28 days of treatment; mean ± SD, n = 8
Entries and their Liver mass
READOUT_TYPE: Liver mass

>>> result("CCNC(=O)CC[C@H](N)C(=O)O")
"1,866 ± 43 mg"
>>> result("Cn1c(=O)[nH]c2ncn(C)c2c1=O")
"1,870 ± 31 mg"
>>> result("NCCS(=O)(=O)O")
"1,834 ± 52 mg"
>>> result("C[N+](C)(C)CCOP(=O)([O-])OC[C@H](O)CO")
"1,869 ± 32 mg"

----------
assay: Feed consumption during 28-day oral supplementation; type: in vivo, Swiss Albino mice; details: Week 2; mean ± SD, n = 8 mice
Entries and their feed consumption
READOUT_TYPE: feed consumption

>>> result("NCCS(=O)(=O)O")
"43.21 ± 1.25 grams"
>>> result("CCNC(=O)CC[C@H](N)C(=O)O")
"43.50 ± 0.66 grams"
>>> result("Cn1c(=O)[nH]c2ncn(C)c2c1=O")
"43.89 ± 0.68 grams"
>>> result("C[N+](C)(C)CCOP(=O)([O-])OC[C@H](O)CO")
"43.34 ± 0.40 grams"

----------
Entries and their Urea
experiment: Clinical biochemical profiles of serum; format: in vivo, Swiss Albino mice; conditions: serum at end of 28-day treatment; mean ± SD, n = 8
READOUT_TYPE: Urea (mg/dL)

>>> recorded_number("CCNC(=O)CC[C@H](N)C(=O)O [L-Theanine, L-theanine]")
28.75
>>> recorded_number("Cn1c(=O)[nH]c2ncn(C)c2c1=O [Paraxanthine, 1,7-dimethylxanthine]")
29.13
>>> recorded_number("NCCS(=O)(=O)O [Taurine, taurine]")
29.38
>>> recorded_number("C[N+](C)(C)CCOP(=O)([O-])OC[C@H](O)CO [Alpha-GPC, L-alpha glycerylphosphorylcholine]")
29.38

----------
experiment: Clinical biochemical profiles of serum; assay type: in vivo, Swiss Albino mice; conditions: serum at end of 28-day treatment; mean ± SD, n = 8
Entries and their AST
READOUT_TYPE: AST

>>> result("C[N+](C)(C)CCOP(=O)([O-])OC[C@H](O)CO")
"38.88 ± 2.10 U/L"
>>> result("NCCS(=O)(=O)O")
"40.13 ± 2.36 U/L"
>>> result("Cn1c(=O)[nH]c2ncn(C)c2c1=O")
"39.50 ± 1.60 U/L"
>>> result("CCNC(=O)CC[C@H](N)C(=O)O")
"40.25 ± 2.44 U/L"

----------
Entries and their body weight
assay: Body weight during 28-day oral supplementation; type: in vivo, Swiss Albino mice; settings: Week 4; oral once daily; mean ± SD, n = 8 mice
READOUT_TYPE: body weight

>>> result("Cn1c(=O)[nH]c2ncn(C)c2c1=O")
"32.80 ± 0.48 grams"
>>> result("CCNC(=O)CC[C@H](N)C(=O)O")
"31.60 ± 0.64 grams"
>>> result("NCCS(=O)(=O)O")
"32.34 ± 3.06 grams"
>>> result("C[N+](C)(C)CCOP(=O)([O-])OC[C@H](O)CO")
"31.68 ± 0.44 grams"

----------
assay: Liver and heart mass / gross pathology; assay type: in vivo, Swiss Albino mice; settings: after 28 days of treatment; mean ± SD, n = 8
Entries and their Heart mass
READOUT_TYPE: Heart mass (mg)

>>> recorded_number("NCCS(=O)(=O)O")
190
>>> recorded_number("Cn1c(=O)[nH]c2ncn(C)c2c1=O")
190
>>> recorded_number("C[N+](C)(C)CCOP(=O)([O-])OC[C@H](O)CO")
189
>>> recorded_number("CCNC(=O)CC[C@H](N)C(=O)O")
189
